Quick reference for OD450 among some binders
Target: SARS-CoV-2 RBD (receptor binding domain of spike protein of SARS-CoV-2) (SARS-CoV-2, UniProt P0DTC2 319-541)
Test: ELISA, S1-RBD coated on the plate, antibody at one concentration, anti-human IgG-HRP
Reply briefly: the number, and no unit.

[
  {
    "binder": "Antibody 13-17 (antibody, V domains shown) VH: QDQLVQSGAEVKKPGASVKVSCKVSGYTLPELSLHWVRQPPGKGLEWMGGFDPEDGETIYAQKFQGRVTMTEDTSTDTAYMELSSLRSEDTAVYYCAASTPMGGHTDWLDPWGQGTLVTVSS VL: QSVLTQPPSVSAAPGQKVTISCSGSSSNIGNNYVSWYQQLPGTAPKLLIYDNNKRPSGIPDRFSGSKSGTSATLGITGLQTGDEADYYCGTWDSSLSAGVFGGGTKLTVL",
    "observation.type": "OD450",
    "measured.number": 0.0815
  }
]

Lab note: next binder to report on.
Memo: Antibody 12-13 (antibody, V domains shown) VH: QVQVVQSGAEVKKPGASVKVSCKVSGYTLTELSIHWVRQTPGKGLEWMGGFDPEDGETIYAQWLQGRVTMTEDTSTDIAYMELSSLRHEDTAVYYCATGPAIAGAGTNWFDPRGQGTLVIVSS VL: QSALTQPASVSGSPGQSITISCTGTSSDVGGYNYVSWYQQHPGKAPKLMIYDVSKRPSGVPDRFSGSKSGNTASLTISGLQAEDEADYYCTSYTNSSTWVFGGGTKLTVL , reported OD450: 0.06
